// MIC lookup, one value per entry
Tested on: Streptococcus pyogenes
Experiment: Antibacterial activity against constitutively macrolide/lincosamide/streptogramin B-resistant Streptococcus pyogenes by agar microdilution method
Type: functional

State its MIC: C=CCO[C@]1(C)C[C@@H](C)NC(=O)[C@H](C)[C@@H](O)[C@](C)(O)[C@@H](CC)OC(=O)[C@H](C)[C@@H](OC(=O)CCNC(C)C(=O)Nc2ccccc2)[C@H](C)[C@H]1O[C@@H]1O[C@H](C)C[C@H](N(C)C)[C@H]1O (some centres not stated)
> 64 µg/mL

Now consider the entry below.
Give the reported value of MIC for this record: C=CCO[C@]1(C)C[C@@H](C)NC(=O)[C@H](C)[C@@H](O)[C@](C)(O)[C@@H](CC)OC(=O)[C@H](C)[C@@H](OC(=O)CCNC(C)Cc2ccc(OC)cc2)[C@H](C)[C@H]1O[C@@H]1O[C@H](C)C[C@H](N(C)C)[C@H]1O (some centres not stated)
> 64 µg/mL

* * *

Test: Cmax in Han Wistar rat at 10 mg/kg, iv by LC-MS/MS analysis
Format: ADME, organism-based
Design: dose 10 mg/kg, route intravenous
Conditions: in vivo
assay.endpoint: Cmax (ng/mL)
Note: unit ng/mL is implicit; provide only the numeric part.

Supply reported Cmax belonging to this compound: CC[C@H]1OC(=O)[C@H](C)[C@@H](OC(=O)CCNCCNc2cc3c(=O)c(C(=O)O)cn(C4CC4)c3cc2Cl)[C@H](C)[C@@H](O[C@@H]2O[C@H](C)C[C@H](N(C)C)[C@H]2O)[C@](C)(OC/C=C/c2cnc3ccccc3c2)C[C@@H](C)NC(=O)[C@H](C)[C@@H](O)[C@]1(C)O
2480

Hello, please tell me recorded Cmax for this one: CC[C@H]1OC(=O)[C@H](C)C(=O)[C@H](C)[C@@H](O[C@@H]2O[C@H](C)C[C@H](N(C)C)[C@H]2O)[C@](C)(OC)C[C@@H](C)C(=O)[C@H](C)[C@H]2N(CCCCn3cnc(-c4cccnc4)c3)C(=O)O[C@]12C
1850

Continuing:
Provide only the value of recorded Cmax for C=CCO[C@]1(C)C[C@@H](C)NC(=O)[C@H](C)[C@@H](O)[C@](C)(O)[C@@H](CC)OC(=O)[C@H](C)[C@@H](OC(=O)CCNCCNc2cc3c(=O)c(C(=O)O)cn(C4CC4)c3cc2Cl)[C@H](C)[C@H]1O[C@@H]1O[C@H](C)C[C@H](N(C)C)[C@H]1O
3870

* * *

Assay: Metabolic stability in rat liver microsomes assessed as parent compound remaining at 1 uM after 60 mins in presence of NADP by LC-MS/MS analysis
Assay type: ADME, microsome
Details: read-out: Stability
assay.endpoint: remaining at 1 h, 1 µM (%)
Return type: number; implicit unit %.

Could you please provide reported remaining at 1 h, 1 µM for C=CCO[C@]1(C)C[C@@H](C)NC(=O)[C@H](C)[C@@H](O)[C@](C)(O)[C@@H](CC)OC(=O)[C@H](C)[C@@H](OC(=O)CCNCCNc2cc3c(=O)c(C(=O)O)cn(C4CC4)c3cc2Cl)[C@H](C)[C@H]1O[C@@H]1O[C@H](C)C[C@H](N(C)C)[C@H]1O ? Thanks!
100

Please examine the following record next.
Look up and state reported remaining at 1 h, 1 µM for CC[C@H]1OC(=O)[C@H](C)[C@@H](O[C@H]2C[C@@](C)(OC)[C@@H](O)[C@H](C)O2)[C@H](C)[C@@H](O[C@@H]2O[C@H](C)C[C@H](N(C)C)[C@H]2O)[C@](C)(O)C[C@@H](C)CN(C)[C@H](C)[C@@H](O)[C@]1(C)O
100

* * *

Test: Metabolic stability in human liver microsomes assessed as parent compound remaining at 1 uM after 60 mins in presence of NADP by LC-MS/MS analysis
Assay type: ADME, microsome
Details: read-out: Stability
assay.endpoint: remaining at 1 h, 1 µM (%)
Kindly provide the numeric value in % only, without the unit symbol.

Sample records with remaining at 1 h, 1 µM:
Quickly give me recorded remaining at 1 h, 1 µM for CC[C@H]1OC(=O)[C@H](C)[C@@H](OC(=O)CCNCCNc2cc3c(=O)c(C(=O)O)cn(C4CC4)c3cc2Cl)[C@H](C)[C@@H](O[C@@H]2O[C@H](C)C[C@H](N(C)C)[C@H]2O)[C@](C)(OC/C=C/c2cnc3ccccc3c2)C[C@@H](C)NC(=O)[C@H](C)[C@@H](O)[C@]1(C)O
100

Respond only with remaining at 1 h, 1 µM recorded for C=CCO[C@]1(C)C[C@@H](C)NC(=O)[C@H](C)[C@@H](O)[C@](C)(O)[C@@H](CC)OC(=O)[C@H](C)[C@@H](OC(=O)CCNCCNc2cc3c(=O)c(C(=O)O)cn(C4CC4)c3cc2Cl)[C@H](C)[C@H]1O[C@@H]1O[C@H](C)C[C@H](N(C)C)[C@H]1O
99

Please give measured remaining at 1 h, 1 µM of the following entry: CC[C@H]1OC(=O)[C@H](C)[C@@H](O[C@H]2C[C@@](C)(OC)[C@@H](O)[C@H](C)O2)[C@H](C)[C@@H](O[C@@H]2O[C@H](C)C[C@H](N(C)C)[C@H]2O)[C@](C)(OC)C[C@@H](C)C(=O)[C@H](C)[C@@H](O)[C@]1(C)O
91

Fill in remaining at 1 h, 1 µM for record CC[C@H]1OC(=O)[C@H](C)[C@@H](O[C@H]2C[C@@](C)(OC)[C@@H](O)[C@H](C)O2)[C@H](C)[C@@H](O[C@@H]2O[C@H](C)C[C@H](N(C)C)[C@H]2O)[C@](C)(O)C[C@@H](C)CN(C)[C@H](C)[C@@H](O)[C@]1(C)O
100

Others:
// Input: CCOc1ccc2ccc(=O)oc2c1 . Output its remaining at 1 h, 1 µM only.
18

* * *

Assay: Tmax in Han Wistar rat at 20 mg/kg, po by LC-MS/MS analysis
Format: ADME, organism-based
Conditions: in vivo
assay.endpoint: Tmax (h)
Write it as a number; the unit h goes unstated.

Please look at this molecule and report its Tmax: CC[C@H]1OC(=O)[C@H](C)[C@@H](OC(=O)CCNCCNc2cc3c(=O)c(C(=O)O)cn(C4CC4)c3cc2Cl)[C@H](C)[C@@H](O[C@@H]2O[C@H](C)C[C@H](N(C)C)[C@H]2O)[C@](C)(OC/C=C/c2cnc3ccccc3c2)C[C@@H](C)NC(=O)[C@H](C)[C@@H](O)[C@]1(C)O
3.3

Continuing:
Give me measured Tmax, please, for this molecule: CC[C@H]1OC(=O)[C@H](C)C(=O)[C@H](C)[C@@H](O[C@@H]2O[C@H](C)C[C@H](N(C)C)[C@H]2O)[C@](C)(OC)C[C@@H](C)C(=O)[C@H](C)[C@H]2N(CCCCn3cnc(-c4cccnc4)c3)C(=O)O[C@]12C [TELITHROMYCIN]
2.3

* * *

Test: Protein binding in mouse plasma at 1 ug/ml by LC-MS/MS analysis
Type: ADME, cell-free
Details: read-out: PPB (converted)
Quick rule for you: fraction unbound at 1 ug/ml under 0.4 gets T, anything else gets F.

Solved cases (3 shown):
Hello, I'm reviewing records and need to know if fraction unbound at 1 ug/ml of C=CCO[C@]1(C)C[C@@H](C)NC(=O)[C@H](C)[C@@H](O)[C@](C)(O)[C@@H](CC)OC(=O)[C@H](C)[C@@H](OC(=O)CCNCCNc2cc3c(=O)c(C(=O)O)cn(C4CC4)c3cc2Cl)[C@H](C)[C@H]1O[C@@H]1O[C@H](C)C[C@H](N(C)C)[C@H]1O is below 0.4. Could you check?
F

Please state whether fraction unbound at 1 ug/ml is below 0.4 for CC[C@H]1OC(=O)[C@H](C)[C@@H](OC(=O)CCNCCNc2cc3c(=O)c(C(=O)O)cn(C4CC4)c3cc2Cl)[C@H](C)[C@@H](O[C@@H]2O[C@H](C)C[C@H](N(C)C)[C@H]2O)[C@](C)(OC/C=C/c2cnc3ccccc3c2)C[C@@H](C)NC(=O)[C@H](C)[C@@H](O)[C@]1(C)O
T

Lab note: confirm whether the reported fraction unbound at 1 ug/ml for this molecule is below 0.4, equality not counting. molecule: CC[C@H]1OC(=O)[C@H](C)[C@@H](O[C@H]2C[C@@](C)(OC)[C@@H](O)[C@H](C)O2)[C@H](C)[C@@H](O[C@@H]2O[C@H](C)C[C@H](N(C)C)[C@H]2O)[C@](C)(O)C[C@@H](C)CN(C)[C@H](C)[C@@H](O)[C@]1(C)O
F

Further cases:
Is fraction unbound at 1 ug/ml strictly under 0.4 for the entry CC[C@H]1OC(=O)[C@H](C)[C@@H](O[C@H]2C[C@@](C)(OC)[C@@H](O)[C@H](C)O2)[C@H](C)[C@@H](O[C@@H]2O[C@H](C)C[C@H](N(C)C)[C@H]2O)[C@](C)(OC)C[C@@H](C)C(=O)[C@H](C)[C@@H](O)[C@]1(C)O ?
F
